Collected from the literature: log10 of IC50 of various compounds toward Vascular endothelial growth factor receptor 2 (Mus musculus, UniProt P35918).
observable: log10 of IC50 (log10 of the value in µM)

recordSmiles | log10 of IC50
CCc1c(/C=C2\C(=O)Nc3ccccc32)[nH]c(C)c1C | -0.85
O=C1Nc2ccccc2/C1=C/c1ccc(N2CCCC2)cc1 | 0.48
CC(C)(C)c1cc(/C=C2/C(=O)Nc3ccccc32)cc(C(C)(C)C)c1O | 0.92
CN(C)c1ccc(/C=C2/C(=O)N(C)c3ccccc32)cc1 | 1.35
CCOC(=O)c1c(C)[nH]c(/C=C2/C(=O)Nc3ccccc32)c1C | -1.15
CCc1ccc(/C=C2\C(=O)Nc3ccccc32)s1 | 0.53
Fc1ccc2c(-c3nc4cc(N5CCC(N6CCCCC6)CC5)ccc4[nH]3)[nH]nc2c1 | -1.55
CN(C)c1ccc(/C=C2\C(=O)Nc3cc(F)ccc32)cc1 | 0.66
CSc1ccc(/C=C2\C(=O)Nc3cccc(C)c32)s1 | 3.00
O=C1Nc2cc(F)ccc2/C1=C\c1ccc[nH]1 | -0.15
Cn1cccc1/C=C1/C(=O)Nc2ccccc21 | 1.31
Cc1ccc(/C=C2/C(=O)Nc3ccccc32)o1 | 1.87
O=C1Nc2ccccc2/C1=C\c1cc(Br)cs1 | 3.00
CN1CCN(c2ccc3nc(-c4c(N)c5ccccc5[nH]c4=O)[nH]c3n2)CC1 | -1.62
Cc1cc2c(F)c(Oc3ncnn4cc(OC[C@@H](C)O)c(C)c34)ccc2[nH]1 | -1.05
CCOC(=O)c1c[nH]c(/C=C2/C(=O)Nc3ccccc32)c1C | -0.74

====

Collected from the literature: IC50 of various compounds toward Vascular endothelial growth factor receptor 2 (Mus musculus, UniProt P35918).

recordSmiles | studyTarget | censoringSign | IC50, µM
CCc1c(C)[nH]c(/C=C2/C(=O)Nc3ccccc32)c1C | Vascular endothelial growth factor receptor 2 (Mus musculus, UniProt P35918) | = | 1000
C/C(=C1\C(=O)Nc2ccccc21)c1ccc(N2CCCCC2)cc1 | Vascular endothelial growth factor receptor 2 (Mus musculus, UniProt P35918) | = | 1000
Nc1c(-c2nc3ccccc3[nH]2)c(O)nc2sccc12 | Vascular endothelial growth factor receptor 2 (Mus musculus, UniProt P35918) | = | 0.109
Cc1c[nH]c(/C=C2/C(=O)Nc3ccccc32)c1C | Vascular endothelial growth factor receptor 2 (Mus musculus, UniProt P35918) | = | 2.69
CCOC(=O)c1c[nH]c(/C=C2\C(=O)Nc3ccccc32)c1C | Vascular endothelial growth factor receptor 2 (Mus musculus, UniProt P35918) | = | 0.18
c1ccc2c(-c3nc4ccc(N5CCC(N6CCCCC6)CC5)cc4[nH]3)n[nH]c2c1 | Vascular endothelial growth factor receptor 2 (Mus musculus, UniProt P35918) | = | 0.078
CC(C)(C)c1cc(/C=C2/C(=O)Nc3ccccc32)cc(Br)c1O | Vascular endothelial growth factor receptor 2 (Mus musculus, UniProt P35918) | = | 46.8
Cc1cccc2c1/C(=C/c1ccc(N3CCOCC3)cc1)C(=O)N2 | Vascular endothelial growth factor receptor 2 (Mus musculus, UniProt P35918) | = | 2.1
Cn1ncc2c(N)c(-c3nc4ccccc4[nH]3)c(O)nc21 | Vascular endothelial growth factor receptor 2 (Mus musculus, UniProt P35918) | = | 3
O=C1Nc2ccccc2/C1=C/c1ccc(Br)cc1 | Vascular endothelial growth factor receptor 2 (Mus musculus, UniProt P35918) | > | 100
O=c1[nH]c2ccccc2c(O)c1-c1nc2ccccc2[nH]1 | Vascular endothelial growth factor receptor 2 (Mus musculus, UniProt P35918) | = | 0.114
Cc1cccc2c1/C(=C/c1ccc[nH]1)C(=O)N2 | Vascular endothelial growth factor receptor 2 (Mus musculus, UniProt P35918) | = | 31
Nc1c2cnnc-2[nH]c(O)c1-c1nc2ccccc2[nH]1 | Vascular endothelial growth factor receptor 2 (Mus musculus, UniProt P35918) | = | 0.507
O=C(NC1CC1)c1cc(NCc2cnc(Nc3ccccn3)s2)c(F)cc1F | Vascular endothelial growth factor receptor 2 (Mus musculus, UniProt P35918) | = | 0.04
